Data provenance: patent US20150166470A1

- test-method-notes: In vivo plasma, tissue and CNS exposure and tolerability after systemic dosing in mice
- protocol-conditions: mouse, brain, iv; i.v. 10 mg/kg, 3 hr; read-out: Brain level
measured-parameter: concentration at 3 h (ng/g)
Respond with the bare value in ng/g.

Please look at this compound and report its concentration at 3 h: CN(C)CCNC(=O)c1cc(-c2ccc(O)c3c2C[C@H]2C[C@H]4[C@H](N(C)C)C(O)=C(C(N)=O)C(=O)[C@@]4(O)C(O)=C2C3=O)ccc1F [Compound 1]
110

====

- test-method-notes: In vivo plasma, tissue and CNS exposure and tolerability after systemic dosing in mice
- protocol-conditions: mouse, brain, iv; i.v. 10 mg/kg, 1 hr
measured-parameter: Kp at 1 h

Please look at this compound and report its Kp at 1 h: CN(C)CCNC(=O)c1cc(-c2ccc(O)c3c2C[C@H]2C[C@H]4[C@H](N(C)C)C(O)=C(C(N)=O)C(=O)[C@@]4(O)C(O)=C2C3=O)ccc1F [Compound 1]
0.23

====

- test-method-notes: In vivo plasma, tissue and CNS exposure and tolerability after systemic dosing in mice
- protocol-conditions: mouse, brain, iv; i.v. 10 mg/kg, 0.5 hr; read-out: Brain level
measured-parameter: concentration at 0.5 h (ng/g)
Respond with the bare value in ng/g.

Please look at this compound and report its concentration at 0.5 h: CN(C)CCNC(=O)c1cc(-c2ccc(O)c3c2C[C@H]2C[C@H]4[C@H](N(C)C)C(O)=C(C(N)=O)C(=O)[C@@]4(O)C(O)=C2C3=O)ccc1F
550

====

- test-method-notes: In vivo plasma, tissue and CNS exposure and tolerability after systemic dosing in mice
- protocol-conditions: mouse, plasma, iv; i.v. 10 mg/kg, 3 hr; read-out: Plasma level
measured-parameter: concentration at 3 h (ng/mL)
Respond with the bare value in ng/mL.

Please look at this compound and report its concentration at 3 h: CN(C)CCNC(=O)c1cc(-c2ccc(O)c3c2C[C@H]2C[C@H]4[C@H](N(C)C)C(O)=C(C(N)=O)C(=O)[C@@]4(O)C(O)=C2C3=O)ccc1F
400
